Values compiled from patent EP4768505A1.

Molecular target: BSA (UniProt P02769)
Sequence (P02769 25-607 limits assumed): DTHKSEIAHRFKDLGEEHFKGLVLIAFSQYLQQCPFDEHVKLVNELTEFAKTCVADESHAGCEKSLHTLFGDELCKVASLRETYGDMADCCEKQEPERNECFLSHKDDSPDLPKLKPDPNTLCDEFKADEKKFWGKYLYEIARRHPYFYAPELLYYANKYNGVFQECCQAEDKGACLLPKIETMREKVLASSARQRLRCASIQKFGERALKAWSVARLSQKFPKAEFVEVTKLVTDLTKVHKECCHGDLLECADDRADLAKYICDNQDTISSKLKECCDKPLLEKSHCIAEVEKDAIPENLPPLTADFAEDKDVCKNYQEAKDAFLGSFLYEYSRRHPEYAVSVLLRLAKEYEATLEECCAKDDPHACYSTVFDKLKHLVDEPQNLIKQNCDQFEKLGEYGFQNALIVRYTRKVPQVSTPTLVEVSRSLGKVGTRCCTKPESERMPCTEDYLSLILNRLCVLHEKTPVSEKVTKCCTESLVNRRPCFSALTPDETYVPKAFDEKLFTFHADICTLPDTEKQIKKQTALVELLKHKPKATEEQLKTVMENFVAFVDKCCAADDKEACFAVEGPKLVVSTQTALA
Experiment: ELISA on coated BSA control, anti-myc detection; 200pg antibody added
Readout name: OD450 nm (OD450)
Enter your answer as a number in OD450; do not include the unit.

[in] Query (binder): anti-CD79B single-domain antibody JYB10 (VHH, Alpaca VHH from a phage library; ELISA detected with an anti-myc antibody; a myc tag is not described; not shown: His-tag protein at the C-terminal end) VHH: DVQLQESGGGLVQPGGSLSLSCAASISSSSIWVRAWHRQAPGKQRELVAAINNDGQTMYADSVKGRFTISRDNAKTTVSLQMNSLKPEDTAVYYCNVVTPKGHQYWGQGTQVTVSS ; field requested: OD450 nm
[out] 0.0488

[in] What do you get for anti-CD79B single-domain antibody JYB14 (VHH, Alpaca VHH from a phage library; ELISA detected with an anti-myc antibody; a myc tag is not described; not shown: His-tag protein at the C-terminal end) VHH: DVQLQESGGGLVQPGGSLSLTCTASISSLTIWVRAWHRQAPGKQRELVAAINSDGQTMYADSVKGRFTISRDNAKTTVSLQMDSLKPEDTAVYYCNVVTPNGQQYWGQGTQVTVSS ?
[out] 0.0489

[in] Lookup anti-CD79B single-domain antibody JYB4 (VHH, Alpaca VHH from a phage library; not shown: His-tag protein at the C-terminal end) VHH: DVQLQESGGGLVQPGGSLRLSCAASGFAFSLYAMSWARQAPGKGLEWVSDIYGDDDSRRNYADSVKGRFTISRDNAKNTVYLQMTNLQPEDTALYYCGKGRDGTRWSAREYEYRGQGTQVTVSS
[out] 0.0476

[in] Please give the result for anti-CD79B single-domain antibody JYB8 (VHH, not shown: small tags and cut ends) VHH: DVQLQESGGGLMQPGGSLSLTCTASISSLSIWVRAWHRQAPGKQRELVAAINSDGQTMYADSVKGRFTISRDSAKTTVSLQMDSLKPEDTAVYYCNVVTPKGQQYWGQGTQVTVSS too.
[out] 0.0534
